- Tested on: NKL (IL-2 2.5 ng/mL);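 also: normalised to DMSO-only wells as negative and benzethonium chloride as positive control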
- PROTOCOL_NOTES: percent inhibition of viability; higher = more inhibition
- ASSAY_CONTEXT: 72 h; 1 nM
The entries below are paired with their reported percent inhibition of viability.
READOUT_KIND: percent inhibition of viability (%)

COMPOUND	REPORTED_VALUE
CC(C)Oc1ccc(C(=O)N[C@H](CNC(=O)CN(C)C)Cc2ccc(-c3cn4cccc([C@H](C)O)c4n3)cc2)cc1Cl (max concentration tested 10000 nM)	2.24
O=C(O)CC1CC(c2ccccc2)=NO1 (stereo not given) [VGX-1027] (max concentration tested 10000 nM)	-7.13
FC(F)(F)c1ccc(/C=C/c2nc(COc3ccc(CCCCn4ccnn4)cc3)co2)cc1 [Mubritinib] (max concentration tested 1000 nM)	-8.04
Cc1[nH]c(/C=C2\C(=O)Nc3ccccc32)c(C)c1CCC(=O)O [Orantinib] (max concentration tested 10000 nM)	-19.2
O=c1[nH]c(=O)n([C@H]2C[C@H](O)[C@@H](CO)O2)cc1F [Floxuridine] (max concentration tested 10000 nM)	-14.5
O=C(Nc1ccncc1)C(=O)c1cn(Cc2ccc(Cl)cc2)c2ccccc12 [Indibulin] (max concentration tested 10000 nM)	-12.2
Cn1cnc2c(F)c(Nc3ccc(Br)cc3Cl)c(C(=O)NOCCO)cc21 [Selumetinib] (max concentration tested 10000 nM)	-4.4
O=C(O)c1ccc(Nc2ncc3c(n2)-c2ccc(Cl)cc2C(c2c(F)cccc2F)=NC3)cc1 [MLN-8054] (max concentration tested 10000 nM)	12.4
CC[C@]1(O)C[C@@H]2CN(CCc3c([nH]c4ccccc34)[C@@](C(=O)OC)(c3cc4c(cc3OC)N(C)[C@H]3[C@@](O)(C(=O)OC)[C@H](OC(C)=O)[C@]5(CC)C=CCN6CC[C@]43[C@@H]65)C2)C1 [Vinblastine] (max concentration tested 1000 nM)	4.6
Cc1sc2c(c1C)C(c1ccc(Cl)cc1)=N[C@@H](CC(=O)Nc1ccc(O)cc1)c1nnc(C)n1-2 [OTX015] (max concentration tested 10000 nM)	6.07
OC[C@H]1O[C@@H](n2cnc3c2N=CNC[C@H]3O)C[C@@H]1O [Pentostatin] (max concentration tested 10000 nM)	-20.9
COc1cc2c(Nc3ccc(Cl)c(Cl)c3F)ncnc2cc1OC[C@@H]1C[C@@H]2CN(C)C[C@@H]2C1 [XL-647] (max concentration tested 1000 nM)	-2.96
CNC(=O)c1cc(Oc2ccc(NC(=O)Nc3cc(C(C)(C)C)nn3-c3ccc4ncccc4c3)c(F)c2)ccn1 [Rebastinib] (max concentration tested 1000 nM)	-3.91
COC(=O)C[C@](O)(CCCC(C)(C)O)C(=O)O[C@@H]1C(OC)=C[C@]23CCCN2CCc2cc4c(cc2[C@H]13)OCO4 [Omacetaxine] (max concentration tested 10000 nM)	3.97
C#Cc1cccc(Nc2ncnc3cc4c(cc23)OCCOCCOCCO4)c1 [Icotinib] (max concentration tested 10000 nM)	-8.58
CS(=O)(=O)CCNCc1ccc(-c2ccc3ncnc(Nc4ccc(OCc5cccc(F)c5)c(Cl)c4)c3c2)o1 [Lapatinib] (max concentration tested 1000 nM)	-0.98
Cc1cc(C(C)Nc2ccccc2)c2nc(N3CCOCC3)cc(=O)n2c1 (stereo not given) [TGX-221] (max concentration tested 10000 nM)	2.96
CNC(=O)c1ccc(N2C(=S)N(c3ccc(C#N)c(C(F)(F)F)c3)C(=O)C2(C)C)cc1F [Enzalutamide] (max concentration tested 10000 nM)	-2.17
COc1cc2c(cc1O)CC[C@@H]1[C@@H]2CC[C@]2(C)[C@@H](O)CC[C@@H]12 [2-methoxyestradiol] (max concentration tested 10000 nM)	-3.96
Oc1ncc(N(CCCl)CCCl)c(O)n1 [Uracil mustard] (max concentration tested 10000 nM)	-13
CC(=O)c1c(C)c2cnc(Nc3ccc(N4CCNCC4)cn3)nc2n(C2CCCC2)c1=O [Palbociclib] (max concentration tested 10000 nM)	-10.3
O=C(c1ccc(F)c(F)c1Nc1ccc(I)cc1F)N1CC(O)([C@@H]2CCCCN2)C1 [Cobimetinib] (max concentration tested 1000 nM)	-11.4
O=C1NC(=O)/C(=C/c2ccc3nccc(-c4ccncc4)c3c2)S1 (max concentration tested 10000 nM)	-16.6
CC1=C(/C=C/C(C)=C/C=C/C(C)=C/C(=O)O)C(C)(C)CCC1 [Tretinoin] (max concentration tested 10000 nM)	-12.8
COC(=O)c1ccc2c(c1)NC(=O)/C2=C(\Nc1ccc(N(C)C(=O)CN2CCN(C)CC2)cc1)c1ccccc1 [Nintedanib] (max concentration tested 10000 nM)	-7.94
